Tested on: 8505C
Test: Cytotoxicity against human 8505C cells by SRB assay
Assay type: functional, cell-based
Here, each record is paired with measured IC50 data.

// worked examples, IC50 included
CCOC(=O)C(C[N+](=O)[O-])c1ccc(C(F)(F)F)cc1 (stereo not drawn) :: 13.8 µM
O=C(Cc1ccccc1)C(C[N+](=O)[O-])c1ccc(Cl)cc1 (stereo not drawn) :: > 30 µM
C=C(C#N)c1ccc(Cl)cc1 :: > 30 µM

Entry CCOC(=O)C(C[N+](=O)[O-])c1ccc(C)cc1 (stereo not drawn) has what IC50?
> 30 µM

Could you tell me which IC50 is on file for CCOC(=O)C(C[N+](=O)[O-])c1cccc(OC(F)(F)F)c1 (stereo not drawn) ?
22.1 µM

// lookup IC50 for COC(=O)C(C[N+](=O)[O-])c1ccc(Cl)cc1 (stereo not drawn)
11.6 µM

Which IC50 is reported for this compound? CCOC(=O)C(C)(C[N+](=O)[O-])c1ccc(Cl)cc1 (stereo not drawn)
> 30 µM

Field request: IC50 | item: CCOC(=O)C(CN)c1ccc(Cl)cc1 (stereo not drawn)
> 30 µM
